Let's look at some compounds and their measured IC50.
target_system: Lp-PLA2 enzyme in human plasma (Homo sapiens)
Construct: from tissue; host or cells: mixed (pooled) human plasma
Sequence (Q13093 22-441): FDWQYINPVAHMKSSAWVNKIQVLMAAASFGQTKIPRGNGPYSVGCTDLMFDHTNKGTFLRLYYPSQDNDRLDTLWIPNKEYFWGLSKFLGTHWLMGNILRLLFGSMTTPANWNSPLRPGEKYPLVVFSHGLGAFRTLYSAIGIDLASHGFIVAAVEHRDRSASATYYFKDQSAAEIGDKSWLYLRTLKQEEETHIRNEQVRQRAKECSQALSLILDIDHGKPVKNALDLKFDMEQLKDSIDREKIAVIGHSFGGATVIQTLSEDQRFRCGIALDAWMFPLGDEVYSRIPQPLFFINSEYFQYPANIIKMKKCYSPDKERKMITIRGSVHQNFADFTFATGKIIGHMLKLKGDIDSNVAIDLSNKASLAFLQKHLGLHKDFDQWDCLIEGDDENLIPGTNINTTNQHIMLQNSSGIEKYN
assay_comment: Human plasma Lp-PLA2 assay (Thio-PAF assay)
Format: biochemical
measurement_context: mixed human plasma; 2-thio-PAF substrate, CPM; 30-min pre-incubation; fluorescence ex 380/em 485; read-out: Thio-PAF (pIC50) (converted)
Write the answer as a number in nM, unit excluded.

- compound: "O=c1nc(OCc2cc(F)c(Oc3ccc(OC(F)(F)F)c(Cl)c3)c(F)c2)cc2n1CC1CCCN2C1 (stereo not shown)"
  measure: "IC50"
  numeric_value: 12.6
- compound: "O=c1nc(OCc2cc(F)c(Oc3cccc(C(F)(F)F)c3)c(F)c2)cc2n1C[C@@H]1CCCN2C1"
  measure: "IC50"
  numeric_value: 3.98
- compound: "Cc1ncc(Oc2c(F)cc(COc3cc4n(c(=O)n3)CC3CCCN4C3)cc2F)cn1 (stereo not shown)"
  measure: "IC50"
  numeric_value: 15.8

// next item, IC50 requested
Enquiry: Give the reported value of IC50 for this record: O=c1nc(OCc2cc(F)c(Oc3cnc(C(F)(F)F)nc3)c(F)c2)cc2n1CC1CCCN2C1 (stereo not shown)
Return: 10
